# procedureDetails: Solubility in aqueous buffer (PBS, pH 7.4)
# Assay type: physicochemical
measuredAttribute: solubility (µM)
Use µM as the unit, but write only the number.

Task: I'd like to know its solubility. The molecule in question is COc1ccc(CCN2CCC(Nc3nc4ccccc4n3Cc3ccc(F)cc3)CC2)cc1 [astemizole, Astemizole]
Output: 22.1

---

# procedureDetails: Cytotoxicity assay (neutral red, 48 h) on H295R cells
# Type: cell-based, human
# cond: human, H295R cells at 80% confluence
# Procedure: Cytotoxicity assays on H295R cells were carried out as previously described. Briefly, H295R cells were grown in 96-well plates to achieve 70% to 80% confluence. […] An amount of 100 µL of medium containing increasing concentrations of dxr was then added. […] Absorbance was measured in a microplate reader (Multiskan Go Microplate Spectrophotometer from Thermo Fisher Scientific, Illkirch, France).
measuredAttribute: IC50 at 48 h

Task: I'd like to know its IC50 at 48 h. The compound in question is `COc1ccc(CCN2CCC(Nc3nc4ccccc4n3Cc3ccc(F)cc3)CC2)cc1`
Output: ~7 µM

---

# procedureDetails: Human plasma protein binding
# Assay type: in vitro ADME
# cond: read-out: Ppb
measuredAttribute: fraction unbound
A bare number is all that is needed in reply.

Task: I'd like to know its fraction unbound. The compound in question is COc1ccc(CCN2CCC(Nc3nc4ccccc4n3Cc3ccc(F)cc3)CC2)cc1 [astemizole, Astemizole]
Output: 0.01

---

# procedureDetails: Metabolic stability in rat liver microsomes
# Assay type: in vitro ADME
# cond: NADPH, read-out: RLM T1/2
# Description: Profiling and PK studies were performed by GalenAuxi Co (Oxford, UK) as previously described. […] Peak areas were recorded and the concentrations of the test compound in the unknown plasma samples were determined using the respective calibration curve. […]
measuredAttribute: half-life (min)
Use min as the unit, but write only the number.

Task: I'd like to know its half-life. The molecule in question is COc1ccc(CCN2CCC(Nc3nc4ccccc4n3Cc3ccc(F)cc3)CC2)cc1 [astemizole, Astemizole]
Output: 31

---

# procedureDetails: Distribution coefficient octanol/PBS pH 7.4
# Format: physicochemical
# cond: read-out: LogD7.4
measuredAttribute: logD
A bare number is all that is needed in reply.

Task: I'd like to know its logD. The compound in question is `COc1ccc(CCN2CCC(Nc3nc4ccccc4n3Cc3ccc(F)cc3)CC2)cc1`
Output: 3.5

---

# procedureDetails: Cell viability of MeWo melanoma cells (48 h)
# cond: human, MeWo melanoma cells
measuredAttribute: IC50 at 48 h

Task: I'd like to know its IC50 at 48 h. The molecule in question is `COc1ccc(CCN2CCC(Nc3nc4ccccc4n3Cc3ccc(F)cc3)CC2)cc1`
Output: ~7 µM

---

# procedureDetails: Metabolic stability in human liver microsomes
# Type: in vitro ADME
# cond: NADPH, read-out: HLM T1/2
measuredAttribute: half-life

Task: I'd like to know its half-life. The molecule in question is `COc1ccc(CCN2CCC(Nc3nc4ccccc4n3Cc3ccc(F)cc3)CC2)cc1`
Output: > 1 h

Where do these numbers come from? They come from paper PMC7460240.
